This collection of values is drawn from patent US5780265A.

The entries below are paired with their reported Ki.
Target: plasma kallikrein (Homo sapiens)
Construct: Human plasma kallikrein and Factor XIIa were purchased; purchased Enzyme Research Laboratories, Inc. (South Bend, Ind.)
Sequence (P03952 391-638 limits assumed): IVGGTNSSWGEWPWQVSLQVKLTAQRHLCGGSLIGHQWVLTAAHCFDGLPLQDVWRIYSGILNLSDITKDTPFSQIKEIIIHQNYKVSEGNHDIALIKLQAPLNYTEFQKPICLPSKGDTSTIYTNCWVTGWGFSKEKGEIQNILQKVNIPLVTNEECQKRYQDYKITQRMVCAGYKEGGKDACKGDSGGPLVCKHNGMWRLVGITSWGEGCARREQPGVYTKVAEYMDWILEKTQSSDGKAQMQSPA
Sequence (P03952 20-390 limits assumed): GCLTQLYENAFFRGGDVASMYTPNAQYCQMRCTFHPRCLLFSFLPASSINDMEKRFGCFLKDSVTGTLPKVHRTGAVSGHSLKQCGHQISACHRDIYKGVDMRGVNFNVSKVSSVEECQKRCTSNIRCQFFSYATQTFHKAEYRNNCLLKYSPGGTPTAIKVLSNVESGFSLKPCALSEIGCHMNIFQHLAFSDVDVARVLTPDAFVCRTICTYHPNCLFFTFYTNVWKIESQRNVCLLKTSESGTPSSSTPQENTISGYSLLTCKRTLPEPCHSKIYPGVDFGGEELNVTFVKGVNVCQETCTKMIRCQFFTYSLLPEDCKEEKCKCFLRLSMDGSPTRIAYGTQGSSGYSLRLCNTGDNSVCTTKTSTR
Assay: Apparent equilibrium dissociation constant (Ki*) with plasma kallikrein
Type: biochemical
Conditions: 25° C., pH 7.5, 0.7 mM S2302, 1.5 h incubation; at least 3 independent measurements; read-out: Plasma Kallikrein Ki*
Bridges are numbered along the chain shown (N, C = ends). Where no end group is shown, it is not given here.
The answer is to be given in nM; state only the numeric part.

1. VREVCSEQAEPGHCRAAHPRWYFDVTEGKCAPFFYGGCGGNRNNFDTEEYCAAVCGSA (disulfide 5-55, 14-38, 30-51) [KALI-P]
0.2
2. VREVCSEQAEEGHCRAAHPRWYFDVTEGKCAPFYYGGCGGNRNNFDTEEYCAAVCGSA (disulfide 5-55, 14-38, 30-51) [KALI-EY]
0.98
3. VREVCSEQAEDGHCRAAHPRWYFDVTEGKCAPFVYGGCGGNRNNFDTEEYCAAVCGSA (disulfide 5-55, 14-38, 30-51) [KALI-DV]
0.043

The sequence VREVCSEQAEPGHCRAAHPRWYFDVTEGKCAPFVYGGCGGNRNNFDTEEYCAAVCGSA (disulfide 5-55, 14-38, 30-51) [KALI-PV] showed Ki equal to 0.166
